Values from patent CN117946265A

Biological target: T1, 人CX3CL1胞外区蛋白 CX3CL1(Q25-Q341)-6xHis (human, UniProt P78423 25-341)
T1 construct: Expressed in 293 cells; also called huCX3CL1-His; Fractalkine
T1 sequence: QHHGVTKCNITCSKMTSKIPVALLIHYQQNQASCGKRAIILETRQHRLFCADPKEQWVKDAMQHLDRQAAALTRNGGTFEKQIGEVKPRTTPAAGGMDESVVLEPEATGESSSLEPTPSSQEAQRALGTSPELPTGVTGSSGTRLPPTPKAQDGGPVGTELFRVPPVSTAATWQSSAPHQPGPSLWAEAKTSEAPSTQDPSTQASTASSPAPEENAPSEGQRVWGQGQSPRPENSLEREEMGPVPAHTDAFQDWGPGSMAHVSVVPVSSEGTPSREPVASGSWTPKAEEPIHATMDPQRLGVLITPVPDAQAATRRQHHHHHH
Assay: FACS competition: antibody blocks huCX3CL1-His binding to CHOK1-hCX3CR1 cells
Sorting guide: entries reporting IC50 beneath 1 nM go in the satisfied pile, the rest go in the not satisfied pile.

C032 (antibody, human IgG2, kappa, V domains shown, Human-mouse chimeric antibody of mAb032 with human IgG2 constant region, expressed in CHOK1; also called 嵌合抗体C032) VH: EVQLQQSGPELVKPGASVKISCKASGYTFTDYYMNWVKQSHGKSLEWIGDINPNNGGTSYNQKFKGKATLTVDKSSSTAYMELRSLTSEDSAVYYCASSGNSYVDYWGQGTTLTVSS VL: DIVMTQSHKFMSTSVGDRVSITCKASQDVSTAVAWYQQKPGQSPKLLIYWASTRHTGVPDRFTGSGSGTDYTLTISSVQAEDLALYYCQQHYSSPYTFGGGTKLEIKR | satisfied
HumAb032-4 (antibody, human IgG2, kappa, V domains shown, Full-length humanized IgG2/kappa antibody) VH: EVQLVQSGAEVKKPGATVKISCKASGYTFTDYYMNWVQQAPGKSLEWMGDINPNQGGTSYNQKFKGRVTLTVDKSTSTAYMELSSLRSEDTAVYYCASSGNSYVDYWGQGTTVTVSS VL: DIQMTQSPSSLSASVGDRVTITCKASQDVSTAVAWYQQKPGKAPKLLLYWASTRHTGVPSRFSGSGSGTDYTLTISSLQPEDFATYYCQQHYSSPYTFGGGTKVEIKR | not satisfied

## Task Does the reported IC50 of C032NA (antibody, human IgG2, kappa, V domains shown, Chimeric IgG2 mutant of C032 removing the NG hot spot of HCDR2 (NG to NA)) VH: EVQLQQSGPELVKPGASVKISCKASGYTFTDYYMNWVKQSHGKSLEWIGDINPNNAGTSYNQKFKGKATLTVDKSSSTAYMELRSLTSEDSAVYYCASSGNSYVDYWGQGTTLTVSS VL: DIVMTQSHKFMSTSVGDRVSITCKASQDVSTAVAWYQQKPGQSPKLLIYWASTRHTGVPDRFTGSGSGTDYTLTISSVQAEDLALYYCQQHYSSPYTFGGGTKLEIKR stay below 1 nM?
## Result satisfied
